| chemical smiles | logP |
| --- | --- |
| O=C1c2c(O)cccc2C(C(=O)Cc2ccc3ccccc3c2)c2cccc(O)c21 | 4.71 |
| O=C1c2c(O)cccc2C(C(=O)C(c2ccccc2)c2ccccc2)c2cccc(O)c21 | 4.6 |
| O=C1c2c(O)cccc2C(C(=O)CC2CCCCC2)c2cccc(O)c21 | 4.97 |
| O=C1c2c(O)cccc2C(C(=O)Cc2cccc3ccccc23)c2cccc(O)c21 | 4.61 |

====

Reported logP by item:

| chemical smiles | logP |
| --- | --- |
| Nc1ccc(Sc2ccccc2)cc1 | 2.18 |
| COc1ccc(C)cc1N | 1.74 |
| Nc1ccc(Cl)cc1N | 1.28 |
| Nc1cccc2cccnc12 | 1.79 |

====

// reported logP per item
assay: method code SF-AS, from DOI: 10.1021/jm00234a001, PMID: 1003419
readout type: logP

| compound | recorded result |
| --- | --- |
| OCC1OC(Oc2cc(OC3OC(CO)C(O)C(O)C3O)c(I)cc2I)C(O)C(O)C1O (stereo not drawn) | -0.25 |
| CNC(=O)c1c(I)c(O[C@@H]2O[C@H](CO)[C@@H](O)[C@H](O)[C@H]2O)c(I)c(O[C@@H]2O[C@H](CO)[C@@H](O)[C@H](O)[C@H]2O)c1I | -1.57 |
| OCC1OC(Oc2c(I)cc(I)c(OC3OC(CO)C(O)C(O)C3O)c2I)C(O)C(O)C1O (stereo not drawn) | -0.74 |

====

test: method code SF-HPLC, from DOI: 10.1002/ps.2780310207
readout type: logP

| compound | recorded result |
| --- | --- |
| CC(C)(Cc1ccccn1)c1ccc(F)cc1 | 2.97 |
| CCCC(Cn1cncn1)c1ccc(F)cc1 (centres undefined) | 2.01 |
| CCCC(Cc1ccccn1)c1ccc(F)cc1 (centres undefined) | 2.61 |
| Fc1ccc(C2(Cn3cncn3)CC2)cc1 | 1.54 |

====

| compound | logP |
| --- | --- |
| NC(=O)C(CCN1CCCCC1)c1ccccc1Cl (configuration not stated) | 2.46 |
| CC(C)N(CCC(CCN1CCCCC1)(C(N)=O)c1ccccc1Cl)C(C)C (configuration not stated) | 4.78 |

====

assay: method code SF-RC, from DOI: 10.1016/j.nucmedbio.2016.05.003, PMID: 27236283; conditions: pH 7.4
Entries and their logD values follow.
readout type: logD

| chemical smiles | readout type | recorded result |
| --- | --- | --- |
| COc1cc(NCCCF)cc(OC)c1NC(=O)c1ccc(Oc2cc3c(cc2C)CCC3(C)C)o1 | logD | 1.51 |
| COc1cc(OCCF)cc(OC)c1NC(=O)c1ccc(Oc2cc3c(cc2C)CCC3(C)C)o1 | logD | 2.1 |

====

experiment: method code SF, from DOI: 10.1016/0378-5173(87)90234-1; settings: pH 4.0
readout type: logD

| chemical smiles | readout type | recorded result |
| --- | --- | --- |
| O=C(c1ccccc1)n1c(=O)[nH]cc(F)c1=O | logD | 0.8 |

====

assay: method code SF-HPLC, from DOI: 10.1016/0378-5173(89)90133-6; details: pH 7.4

| compound | logD |
| --- | --- |
| OC(Cn1ccnc1)c1ccc(CCc2ccccc2)cc1 (stereo unspecified) | 3.4 |
